FYI, the data here is from PubChem BioAssay (NCI).

# Test system: SK-OV-3 ovarian
# Method: NCI-60 one-dose screen, 48 h
# Measurement parameters: 10 µM unless noted
About 83,000 compounds went through this panel and 20% of them were active in at least one assay; those are over-represented in the sample as a whole. The source made the active and inactive calls. The calls were made as follows: active = growth percent below 10; inactive = the rest.
Outcomes: active, inactive

>>> assigned_label("C#CCOc1ccccc1C(Nc1ccccc1)c1nnnn1C1CCCCC1 (stereo not drawn)")
"inactive"
>>> assigned_label("CNC(=O)c1cc(Oc2ccc3nc(NC(=O)c4ccc(CN5CCCN(C)CC5)c(C(F)(F)F)c4)sc3c2)ccn1")
"inactive"
>>> assigned_label("CCOC(=O)c1c(NC(=O)c2ccc(C(C)(C)C)cc2)sc2cc(OCCN3CCCCC3)ccc12")
"inactive"
>>> assigned_label("CS(=O)(=O)c1ccc2c(c1)c1c(n2C(=O)c2ccc(Cl)cc2)CCCC1")
"inactive"
>>> assigned_label("C#C[C@]1(O)CC[C@H]2[C@@H]3CC=C4c5sc(Nc6cccc(Cl)n6)nc5CC[C@]4(C)[C@H]3CC[C@@]21C")
"active"
>>> assigned_label("O=C(CN1CCN(c2cc(=O)n(-c3ccccc3)c3ccccc23)CC1)Nc1ccc([N+](=O)[O-])cc1")
"inactive"
>>> assigned_label("C#C[C@]1(O)CC[C@H]2[C@@H]3CC=C4c5sc(Nc6cc(Cl)ccn6)nc5CC[C@]4(C)[C@H]3CC[C@@]21C")
"active"
>>> assigned_label("CC(C)Sc1nc(NC2CC2)c(C#N)c(-c2ccccc2)n1")
"inactive"
